assay: DUSP6 inhibitors restoring Erk phosphorylation by chemical complementation, primary imaging in DUSP6-transfected HeLa (AID 609); settings: HeLa MKP-3 transfected, phospho-Erk imaging KS statistic; measured here: cell density z-score; at 10 µM; cells stimulated with TPA for 15 min
Please mark 1 if the recorded z-score is equal to or greater than 0.5, and 0 if it falls below.

Input: hey, is z-score for this one >= 0.5? `Cc1ccc(Cn2ncc3c(N4CCN(c5ccc(C)cc5)CC4)ncnc32)cc1`
Output: 1

Input: hey, is z-score for this one >= 0.5? `CSc1nc(N)nc(SCC(=O)CC(=O)OC(C)C)c1C#N`
Output: 0

Input: hey, is z-score for this one >= 0.5? `Cc1onc(-c2ccccc2Cl)c1C(=O)N1CCN(c2nc3ccccc3s2)CC1`
Output: 1

Input: hey, is z-score for this one >= 0.5? `Nn1c(SCC(=O)Nc2ccc3c(c2)OCCO3)nnc1C(F)(F)F`
Output: 0

Input: hey, is z-score for this one >= 0.5? `CC1(C)Cc2c(sc3c4nnnn4c4nnnn4c23)CO1`
Output: 0

Input: hey, is z-score for this one >= 0.5? `C[C@@H]1C[C@H]2[C@@H]3CCC4=CC(=O)C=C[C@]4(C)[C@@]3(F)[C@@H](O)C[C@]2(C)[C@@]1(O)C(=O)COP(=O)(O)O`
Output: 1

Input: hey, is z-score for this one >= 0.5? `O=C(c1ccc(=O)oc1)N1CCOCC1`
Output: 1

Input: hey, is z-score for this one >= 0.5? `COCCN(C(=O)Nc1ccccc1)c1ccccc1C`
Output: 0

Input: hey, is z-score for this one >= 0.5? `CCc1ccc2c(c1)C(C)=CC(C)(C)N2`
Output: 0

Input: hey, is z-score for this one >= 0.5? `CCC(c1c(C)n(C)n(-c2ccccc2)c1=O)c1c(C)n(C)n(-c2ccccc2)c1=O`
Output: 0

Input: hey, is z-score for this one >= 0.5? `Cc1cc(=O)oc(C)c1C(=O)N[C@@H]1CCCCNC1=O`
Output: 1

Input: hey, is z-score for this one >= 0.5? `CN=C1c2cc3c(Br)c(OC)ccc3n2CCN1C`
Output: 0

Input: hey, is z-score for this one >= 0.5? `Cc1ccccc1-c1nn2c(-c3ccccc3)nnc2s1`
Output: 0

Input: hey, is z-score for this one >= 0.5? `COC(=O)CN(c1nc(C)cc(OC)n1)S(=O)(=O)c1ccccc1`
Output: 0

Input: hey, is z-score for this one >= 0.5? `N#CCCN(CCC#N)c1nnc(-c2ccccc2)s1`
Output: 1

Input: hey, is z-score for this one >= 0.5? CCN(CC)CCN1C(=O)C(=O)/C(=C(/O)c2ccc(F)cc2)C1c1ccncc1 (configuration not stated)
Output: 0

Input: hey, is z-score for this one >= 0.5? `COc1ccc2[nH]c3c(N4CCN(Cc5ccc6c(c5)OCO6)CC4)ncnc3c2c1`
Output: 1

Input: hey, is z-score for this one >= 0.5? `CC(=O)N[C@H]1C[C@@H]1c1ccccc1`
Output: 1

Input: hey, is z-score for this one >= 0.5? `Cc1ccc2[nH]c3c(N4CCOCC4)ncnc3c2c1`
Output: 0

Input: hey, is z-score for this one >= 0.5? CC(C)C1Cc2c(C#N)c(N)n(C)c(=S)c2CO1 (configuration not stated)
Output: 0

Input: hey, is z-score for this one >= 0.5? `CC(C)c1cc(NCCN2CCOCC2)n2c(nc3ccccc32)c1C#N`
Output: 1

Input: hey, is z-score for this one >= 0.5? `Nc1ccc(S(=O)(=O)c2ccc(N)cc2)cc1`
Output: 0

Input: hey, is z-score for this one >= 0.5? CCc1cccc(C)c1N(C(=O)Cn1c(=O)[nH]c2ccccc21)C(C)COC (configuration not stated)
Output: 1

Input: hey, is z-score for this one >= 0.5? `COc1cccc2c1C(=O)c1c(O)c3c(c(O)c1C2=O)C[C@@](O)(C(=O)CO)C[C@@H]3O[C@H]1C[C@H](N)[C@H](O)[C@H](C)O1`
Output: 1

Input: hey, is z-score for this one >= 0.5? CCOc1ccc(CCNC(=O)C(O)c2ccccc2)cc1 (configuration not stated)
Output: 0

Input: hey, is z-score for this one >= 0.5? CC1(C(=O)CSc2nc3ccccc3s2)CCC(=O)O1 (configuration not stated)
Output: 0

Input: hey, is z-score for this one >= 0.5? `CCCSc1nnc2n(-c3ccccc3OC)c(=O)c3c4c(sc3n12)CCC4`
Output: 1

Input: hey, is z-score for this one >= 0.5? COc1ccc(C2CNC(=O)C2)cc1OC1CCCC1 (configuration not stated)
Output: 0

Input: hey, is z-score for this one >= 0.5? `O=c1[nH]cnc2cc(-c3ccccc3)sc12`
Output: 0

Input: hey, is z-score for this one >= 0.5? `COc1ccc(CCn2c(=N)c(C#N)cc3c(=O)n4ccccc4nc32)cc1`
Output: 1

Input: hey, is z-score for this one >= 0.5? CC(C)(C)C1CCC2(CC1)C(C#N)=C(SCC(=O)Nc1ccccc1)NC(=O)C2C#N (configuration not stated)
Output: 0

Input: hey, is z-score for this one >= 0.5? `Fc1ccccc1/C=N/n1cnnc1`
Output: 1

Input: hey, is z-score for this one >= 0.5? `C=CCn1c(=S)[nH]c2ccccc2c1=O`
Output: 0

Input: hey, is z-score for this one >= 0.5? `O=C(c1ccco1)N1CCN(c2ncnc3c2[nH]c2ccccc23)CC1`
Output: 1

Input: hey, is z-score for this one >= 0.5? CC(COc1ccccc1)NC(C)C(O)c1ccc(O)cc1 (configuration not stated)
Output: 0

Input: hey, is z-score for this one >= 0.5? `COC(=O)CN(c1nc(C)c(Cl)c(OC)n1)S(=O)(=O)c1ccc(C)cc1`
Output: 0

Input: hey, is z-score for this one >= 0.5? `CCCCOC(=O)CSc1nc(N)c(C#N)c(-c2ccc(OC)cc2)c1C#N`
Output: 0

Input: hey, is z-score for this one >= 0.5? `Cc1[nH]c(=O)[nH]c(=O)c1S(=O)(=O)N1CCCC1`
Output: 0

Input: hey, is z-score for this one >= 0.5? `COCCCNc1nc2c(c(=O)n(C)c(=O)n2C)n1Cc1cccc(OC)c1`
Output: 1

Input: hey, is z-score for this one >= 0.5? `C[C@@H]1C[C@H]2[C@@H]3CCC4=CC(=O)C=C[C@]4(C)[C@@]3(F)[C@@H](O)C[C@]2(C)[C@H]1C(=O)CO`
Output: 1

Input: hey, is z-score for this one >= 0.5? CN(C)c1ccc(O)c2c1CC1CC3[C@@H](N(C)C)C(=O)C(C(N)=O)=C(O)[C@]3(O)C(=O)C1=C2O (some centres not stated)
Output: 0

====

Record form. Attribute: nuclei count. Fill in for each entry.
experiment: inhibitors of mutant huntingtin aggregation, primary screen, imaging, exon1htt(103Q)mCFP cells, high-content imaging (AID 483); details: exon1htt(103Q)mCFP cell line, aggregate imaging, at 2 µM; measured here: cell count, toxicity;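 note: compound exposure lasted 3 days before fixation; percent of the per-plate median nuclei count of sample wells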
# number only, unit % dropped from output

Input: Check the records and state nuclei count for `CCOC(=O)CC(=O)CSc1[nH]c(=O)cc(C)c1C#N`
Output: 96.3

Input: Check the records and state nuclei count for `NC(N)=NC(N)=NCCc1ccccc1`
Output: 93.2

Input: Check the records and state nuclei count for CN(C)CCOC(=O)C(c1ccccc1)C1(O)CCCC1 (centres undefined)
Output: 102

Input: Check the records and state nuclei count for CC(CN1CCN(C)CC1)OC(=O)c1ccc(Cl)cc1Cl (centres undefined)
Output: 89.3

Input: Check the records and state nuclei count for `C[C@]12CC[C@@H]3c4ccc(OC(=O)c5ccccc5)cc4CC[C@H]3[C@@H]1CC[C@@H]2O`
Output: 31.5

Input: Check the records and state nuclei count for `CCN1CCc2c(C#N)c(N3CCCCC3)nc(NCc3ccccc3)c2C1`
Output: 89.7

Input: Check the records and state nuclei count for NS(=O)(=O)c1cc2c(cc1C(F)(F)F)NC(Cc1ccccc1)NS2(=O)=O (centres undefined)
Output: 75.3

Input: Check the records and state nuclei count for COc1ccc(C2/C(=C(/O)c3ccccc3)C(=O)C(=O)N2c2ncccn2)cc1OC (centres undefined)
Output: 108

Input: Check the records and state nuclei count for COc1cccc(NC(=O)CC2SC(=Nc3ccccc3)NC2=O)c1 (centres undefined)
Output: 84.1

Input: Check the records and state nuclei count for CCC(=O)Oc1ccc(C(CC)C(CC)c2ccc(OC(=O)CC)cc2)cc1 (centres undefined)
Output: 107

Input: Check the records and state nuclei count for `CCC(NC(=O)Nc1cc(OC)c(OC)c(OC)c1)(C(F)(F)F)C(F)(F)F`
Output: 97.5

Input: Check the records and state nuclei count for `NNC(=O)c1ccncc1`
Output: 113

Input: Check the records and state nuclei count for CSc1ccc2c(c1)N(CCC1CCCCN1C)c1ccccc1S2 (centres undefined)
Output: 89.1

Input: Check the records and state nuclei count for COc1ccc(NC(=O)CSC2=C(C#N)C(c3ccco3)C3=C(CCCC3=O)N2)c(OC)c1 (centres undefined)
Output: 95.8

Input: Check the records and state nuclei count for C1CCC(C(CC2CCCCN2)C2CCCCC2)CC1 (centres undefined)
Output: 101

Input: Check the records and state nuclei count for COc1ccc(C2CNC(=O)C2)cc1OC1CCCC1 (centres undefined)
Output: 97.8

Input: Check the records and state nuclei count for `O=C(Nc1ccccc1C(=O)NCCCn1ccnc1)c1ccccc1`
Output: 110

Input: Check the records and state nuclei count for `CC(C)OC(=O)C(C)(C)Oc1ccc(C(=O)c2ccc(Cl)cc2)cc1`
Output: 89.5

Input: Check the records and state nuclei count for `COc1ccc(N2CCN(c3nc4c(c(=O)[nH]c(=O)n4C)n3CCCc3ccccc3)CC2)cc1`
Output: 100

Hello, the source for this data is PubChem BioAssay, in case you need it.
